Origin of the recorded values: patent US8680268B2

# assay.procedure: Measurement of UV absorption spectra of methanol solutions
# Assay type: physicochemical
# condition.parameters: 1×10^−5 mol/liter, long wavelength
measurement.name: Absorbance at second absorption peak
Numbers only.

Guide cases for Absorbance at second absorption peak, answers given:
compound	Absorbance at second absorption peak
Cc1ccc(S(=O)(=O)ON2C(=O)c3cccc4cccc(c34)C2=O)cc1	0.117
CCCCCCCCSc1ccc2c3c(cccc13)C(=O)N(OS(=O)(=O)CC13CCC(CC1=O)C3(C)C)C2=O (stereo not shown)	0.158
CC1(C)C2CCC1(CS(=O)(=O)ON1C(=O)c3cccc4cccc(c34)C1=O)C(=O)C2 (stereo not shown)	0.133

Now take the following compound into account.
Request: Give the reported Absorbance at second absorption peak for this compound. O=C1c2cccc3cccc(c23)C(=O)N1OS(=O)(=O)C(F)(F)F
Result: 0.103

---

# assay.procedure: Evaluation of solubility in various organic solvents at 25° C.
# Assay type: physicochemical
# condition.parameters: concentration giving a stable solution
measurement.name: Solubility in propylene glycol monomethyl ether acetate

Observe how each entry below is paired with its result.
compound	result
CCCCCCCCSc1ccc2c3c(cccc13)C(=O)N(OS(=O)(=O)CC13CCC(CC1=O)C3(C)C)C2=O (centres unmarked)	9.0 mass %
O=C1c2cccc3cccc(c23)C(=O)N1OS(=O)(=O)C(F)(F)F	1.9 mass %
CC1(C)C2CCC1(CS(=O)(=O)ON1C(=O)c3cccc4cccc(c34)C1=O)C(=O)C2 (centres unmarked)	1.1 mass %
Cc1ccc(S(=O)(=O)ON2C(=O)c3cccc4cccc(c34)C2=O)cc1	< 0.5 mass %

Shift focus to the following entry.
Request: Report Solubility in propylene glycol monomethyl ether acetate, nothing else, for this compound: CCCCSc1ccc2c3c(cccc13)C(=O)N(OS(=O)(=O)CC13CCC(CC1=O)C3(C)C)C2=O (centres unmarked)
Result: 2.8 mass %

---

# assay.procedure: Evaluation of solubility in various organic solvents at 25° C.
# Type: physicochemical
# condition.parameters: concentration giving a stable solution
For each of the compounds below, state its Solubility in γ-butyrolactone.
One number for each entry, in mass %.

The cases that follow already have their Solubility in γ-butyrolactone on record.
compound	Solubility in γ-butyrolactone [mass %]
CCCCSc1ccc2c3c(cccc13)C(=O)N(OS(=O)(=O)CC13CCC(CC1=O)C3(C)C)C2=O (centres unmarked)	17.8
Cc1ccc(S(=O)(=O)ON2C(=O)c3cccc4cccc(c34)C2=O)cc1	1.9
O=C1c2cccc3cccc(c23)C(=O)N1OS(=O)(=O)C(F)(F)F	4.8

Next up:
Request: Please look at this compound and report its Solubility in γ-butyrolactone: CC1(C)C2CCC1(CS(=O)(=O)ON1C(=O)c3cccc4cccc(c34)C1=O)C(=O)C2 (centres unmarked)
Result: 12.6

---

# assay.procedure: Measurement of UV absorption spectra of methanol solutions
# Format: physicochemical
# condition.parameters: 1×10^−5 mol/liter, 200 nm to 500 nm, (short wavelength)
Kindly supply the reported Maximum absorption (nm), first absorption peak values for the records listed here.
Numbers only, in nm.

Look over these answered cases.
compound	numeric.readout
CCCCCCCCSc1ccc2c3c(cccc13)C(=O)N(OS(=O)(=O)CC13CCC(CC1=O)C3(C)C)C2=O (stereo not shown)	210
Cc1ccc(S(=O)(=O)ON2C(=O)c3cccc4cccc(c34)C2=O)cc1	229
CC1(C)C2CCC1(CS(=O)(=O)ON1C(=O)c3cccc4cccc(c34)C1=O)C(=O)C2 (stereo not shown)	231

Consider now this further compound.
Request: Quickly give me recorded Maximum absorption (nm), first absorption peak for O=C1c2cccc3cccc(c23)C(=O)N1OS(=O)(=O)C(F)(F)F
Result: 226

---

# assay.procedure: Evaluation of solubility in various organic solvents at 25° C.
# Format: physicochemical
# condition.parameters: concentration giving a stable solution
Can you tell me Solubility in cyclohexanone for the items I'm about to list?

Worked examples follow.
compound	result
CCCCCCCCSc1ccc2c3c(cccc13)C(=O)N(OS(=O)(=O)CC13CCC(CC1=O)C3(C)C)C2=O (centres unmarked)	> 20 mass %
CC1(C)C2CCC1(CS(=O)(=O)ON1C(=O)c3cccc4cccc(c34)C1=O)C(=O)C2 (centres unmarked)	6.1 mass %
CCCCSc1ccc2c3c(cccc13)C(=O)N(OS(=O)(=O)CC13CCC(CC1=O)C3(C)C)C2=O (centres unmarked)	14.0 mass %
Cc1ccc(S(=O)(=O)ON2C(=O)c3cccc4cccc(c34)C2=O)cc1	1.0 mass %

Lab note: next compound to report on.
Request: For the compound O=C1c2cccc3cccc(c23)C(=O)N1OS(=O)(=O)C(F)(F)F , report Solubility in cyclohexanone.
Result: 7.1 mass %

---

# assay.procedure: Measurement of UV absorption spectra of methanol solutions
# Assay type: physicochemical
# condition.parameters: 1×10^−5 mol/liter, 200 nm to 500 nm, long wavelength
Give measured Maximum absorption (nm), second absorption peak for each item. Keep answers brief.
Answers are plain numbers, in nm.

Could you tell me Maximum absorption (nm), second absorption peak for each of these molecules? They are listed below.
1. CC1(C)C2CCC1(CS(=O)(=O)ON1C(=O)c3cccc4cccc(c34)C1=O)C(=O)C2 (stereo not shown)
2. CCCCCCCCSc1ccc2c3c(cccc13)C(=O)N(OS(=O)(=O)CC13CCC(CC1=O)C3(C)C)C2=O (stereo not shown)

Result:
335
400

Parameter requested: Maximum absorption (nm), second absorption peak. Apply to each item below.
1. Cc1ccc(S(=O)(=O)ON2C(=O)c3cccc4cccc(c34)C2=O)cc1
2. O=C1c2cccc3cccc(c23)C(=O)N1OS(=O)(=O)C(F)(F)F

Result:
335
336

---

# assay.procedure: Measurement of UV absorption spectra of methanol solutions
# Assay type: physicochemical
# condition.parameters: 1×10^−5 mol/liter, (short wavelength)
I'd appreciate it if you could supply Absorbance at first absorption peak values for the items below.
Give bare numbers.

Examples with answers:
compound	numeric.readout
O=C1c2cccc3cccc(c23)C(=O)N1OS(=O)(=O)C(F)(F)F	0.389
CCCCCCCCSc1ccc2c3c(cccc13)C(=O)N(OS(=O)(=O)CC13CCC(CC1=O)C3(C)C)C2=O (stereo not shown)	0.299
Cc1ccc(S(=O)(=O)ON2C(=O)c3cccc4cccc(c34)C2=O)cc1	0.513

Query compound follows.
Request: Give Absorbance at first absorption peak for CC1(C)C2CCC1(CS(=O)(=O)ON1C(=O)c3cccc4cccc(c34)C1=O)C(=O)C2 (stereo not shown)
Result: 0.413
